Quick list: Activity per entry.
- Tested on: Streptococcus mutans
- assay_method_text: Antibacterial activity against Streptococcus mutans ATCC 25175 assessed as effect on planktonic growth at 0.68 ug/ml after 20 hrs relative to control
- Format: functional
A number alone suffices; assume %.

Worked cases, Activity given:
compound=COc1ccc(C)cc1C1=C(Br)C(=O)O/C1=C\c1ccccc1Cl measured_property=Activity measured=5.6
compound=COc1ccccc1C1=C(Br)C(=O)N(CC(C)C)/C1=C\c1ccc(C(F)(F)F)cc1 measured_property=Activity measured=5.5
compound="COc1ccc(Cl)cc1C1=C(Br)C(=O)N(CC(C)C)C1(O)Cc1ccccc1Br (configuration not stated)" measured_property=Activity measured=-7.7
compound="COc1ccc(Br)cc1C1=C(Br)C(=O)N(CC(C)C)C1(O)Cc1cccc(Cl)c1 (configuration not stated)" measured_property=Activity measured=10.3

Q. Given the compound COc1ccc(Br)cc1C1=C(Br)C(=O)O/C1=C\c1ccc(Br)cc1 , what is its reported Activity?
A. 7

Q. Given the compound COc1ccc(Cl)cc1C1=C(Br)C(=O)N(CC(C)C)/C1=C/c1ccccc1Br , what is its reported Activity?
A. -13.4

Q. Given the compound COc1ccc(Cl)cc1C1=C(Br)C(=O)O/C1=C\c1ccccc1Br , what is its reported Activity?
A. 5.6

----------
- Tested on: Staphylococcus epidermidis
- assay_method_text: Antibacterial activity against Staphylococcus epidermidis ATCC 35547 assessed as effect on planktonic growth at 0.34 ug/ml after 20 hrs relative to control
- Type: functional
measured_property: Activity (%)
A number alone suffices; assume %.

compound=COc1ccc(C)cc1C1=C(Br)C(=O)N(CC(C)C)/C1=C/c1cccc(Cl)c1 measured_property=Activity unit_name=% measured=16.2
compound=COc1ccc(C)cc1C1=C(Br)C(=O)O/C1=C\c1cccc(Cl)c1 measured_property=Activity unit_name=% measured=10.3
compound="COc1cccc(CC2(O)C(c3cc(Cl)ccc3OC)=C(Br)C(=O)N2CC(C)C)c1 (stereo not drawn)" measured_property=Activity unit_name=% measured=3.3
compound=COc1ccc(Br)cc1C1=C(Br)C(=O)O/C1=C\c1ccc(Br)cc1 measured_property=Activity unit_name=% measured=0.6
compound=COc1ccccc1C1=C(Br)C(=O)N(CC(C)C)/C1=C/c1ccc(C(F)(F)F)cc1 measured_property=Activity unit_name=% measured=-2.2

Q. Given the compound COc1ccc(Br)cc1C1=C(Br)C(=O)N(CC(C)C)/C1=C/c1cccc(Cl)c1 , what is its reported Activity?
A. 4.9

Q. Given the compound COc1ccc(Cl)cc1C1=C(Br)C(=O)N(CC(C)C)C1(O)Cc1ccccc1Br (stereo not drawn) , what is its reported Activity?
A. 2.6

Q. Given the compound COc1ccc(Br)cc1C1=C(Br)C(=O)N(CC(C)C)C1(O)Cc1cccc(Cl)c1 (stereo not drawn) , what is its reported Activity?
A. 34.1

----------
- Test system: Pseudomonas aeruginosa
- assay_method_text: Antibacterial activity against Pseudomonas aeruginosa ATCC 27853 assessed as effect on planktonic growth at 1.37 ug/ml after 20 hrs relative to control
- Assay type: functional
measured_property: Activity (%)
A number alone suffices; assume %.

Worked cases, Activity given:
compound=COc1ccc(C)cc1C1=C(Br)C(=O)N(CC(C)C)/C1=C\c1ccccc1Cl measured=-10.6
compound=COc1ccc(C)cc1C1=C(Br)C(=O)N(CC(C)C)/C1=C/c1cccc(Cl)c1 measured=-0.9
compound="COc1ccc(C)cc1C1=C(Br)C(=O)N(CC(C)C)C1(O)Cc1ccccc1Cl (centres undefined)" measured=-7.4

# ---- query compound ----
Q. Given the compound COc1ccc(Br)cc1C1=C(Br)C(=O)N(CC(C)C)C1(O)Cc1ccc(Br)cc1 (centres undefined) , what is its reported Activity?
A. -4.5

Every entry's value here was drawn from ChEMBL document CHEMBL3112480.
